system: mice; format: in vivo; conditions: intravenous
READOUT KIND: Dose where effects are observed

[
  {
    "COMPOUND": "O=P(O)(O)OC1CN(CCc2ccccc2)CC(OP(=O)(O)O)C1OP(=O)(O)O (stereo not drawn)",
    "READOUT KIND": "Dose where effects are observed",
    "VALUE OBSERVED": ">512 mg/kg"
  },
  {
    "COMPOUND": "O=P(O)(O)O[C@@H]1[C@H](OP(=O)(O)O)[C@H](O)[C@@H](O)[C@H](O)[C@H]1OP(=O)(O)O [IP3, D-myo-inositol-1,2,6-trisphosphate]",
    "READOUT KIND": "Dose where effects are observed",
    "VALUE OBSERVED": ">512 mg/kg"
  },
  {
    "COMPOUND": "CCC(=O)OC1C(OC(=O)CC)C(OP(=O)(O)O)C(OP(=O)(O)O)C(OP(=O)(O)O)C1OC(=O)CC (stereo not drawn)",
    "READOUT KIND": "Dose where effects are observed",
    "VALUE OBSERVED": "256 mg/kg"
  },
  {
    "COMPOUND": "CCCCC(=O)OC1C(OC(=O)CCCC)C(OP(=O)(O)O)C(OP(=O)(O)O)C(OP(=O)(O)O)C1OC(=O)CCCC (stereo not drawn)",
    "READOUT KIND": "Dose where effects are observed",
    "VALUE OBSERVED": "128 mg/kg"
  },
  {
    "COMPOUND": "O=C(O)CP(=O)(O)O[C@@H]1[C@H](OP(=O)(O)CC(=O)O)[C@H](O)[C@@H](O)[C@H](O)[C@H]1OP(=O)(O)CC(=O)O",
    "READOUT KIND": "Dose where effects are observed",
    "VALUE OBSERVED": ">512 mg/kg"
  },
  {
    "COMPOUND": "CCCCOC[C@H]1O[C@H](OC)[C@H](OP(=O)(O)O)[C@@H](OP(=O)(O)O)[C@@H]1OP(=O)(O)O",
    "READOUT KIND": "Dose where effects are observed",
    "VALUE OBSERVED": "256 mg/kg"
  }
]
